Test system: Lefty1
Assay: Lefty1 binders on small-molecule microarrays, primary screen, biochemical, small-molecule microarray, 635/667 nm fluorescence (AID 1139)
Details: small-molecule microarray binding, fluorescence 635/667; higher = more signal
Reported composite z-score values follow for various compounds
# respond with the number and nothing more

Compound	composite z-score
C=C(/C(=C/C[C@H](OC(=O)c1ccncc1)c1ccccc1OCCO)c1cc(C(=O)OC)ccc1OC)C(C)C	0.67
Cc1ccc(S[C@]2(C(=O)NCCCN(C)C)CC(=O)N(Cc3ccccc3Cl)[C@@H]2c2ccc(CO)cc2I)cc1	-0.767
CO[C@H]1O[C@H](CO)[C@@H](OC(=O)Nc2ccc(C(F)(F)F)cc2)[C@H](OC(=O)Nc2ccccc2-c2ccccc2)[C@H]1OC(=O)Nc1ccccc1-c1ccccc1	0.617
COCCOC(=O)N1C(=O)[C@@]2(c3cc(C#CCCO)ccc31)[C@H](C(=O)N1CCN(c3ncccn3)CC1)[C@H]1C(=O)O[C@H](c3ccccc3)[C@H](c3ccccc3)N1[C@@H]2c1ccc(O)cc1	0.413
C=C(CC1([C@@H](NP(=O)(c2ccccc2)c2ccccc2)[C@H]2C[C@@H]2CCN(C(=O)OCC)S(=O)(=O)c2ccc(C)cc2)CC1)c1ccccc1	-0.162

Bench note: what composite z-score did CCC(CC)C(O)C1C=CC2C(=O)N(C)C(=O)C2N1N1CCCCC1 (configuration not stated) show? 0.831

Bench note: what composite z-score did CCCCN1CC=CC23O[C@@H]4C=CCOC(=O)[C@@H]4[C@H]2C(=O)N(C(CO)C(C)C)[C@@H]3C1=O (some centres not stated) show? -0.12
